Data credit: patent US20190382474A1

Target: T1, recombinant human IL-27 (human, UniProt Q14213 21-229; Q8NEV9 29-243)
T1 construct: Bought from R&D Systems (Cat. 2526-IL); also called hIL-27; rhIL-27
T1 sequence 1: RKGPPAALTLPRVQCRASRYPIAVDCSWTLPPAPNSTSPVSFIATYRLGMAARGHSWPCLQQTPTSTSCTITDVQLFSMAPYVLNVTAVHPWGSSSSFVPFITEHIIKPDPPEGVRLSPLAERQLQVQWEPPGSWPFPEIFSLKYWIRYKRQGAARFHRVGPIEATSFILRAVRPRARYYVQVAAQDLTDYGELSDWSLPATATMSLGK
T1 sequence 2: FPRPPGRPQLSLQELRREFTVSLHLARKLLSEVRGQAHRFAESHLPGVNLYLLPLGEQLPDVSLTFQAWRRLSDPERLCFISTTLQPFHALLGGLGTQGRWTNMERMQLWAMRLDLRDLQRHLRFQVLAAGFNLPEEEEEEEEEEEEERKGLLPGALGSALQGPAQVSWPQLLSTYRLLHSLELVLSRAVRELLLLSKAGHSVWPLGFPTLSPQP
Assay: SPR (Biacore T200), hIL-27 on CM5 chip, single cycle, 1:1 model
Kindly supply the reported kon values for the records listed here.
Answers are plain numbers, in M⁻¹ s⁻¹.

// known answers, use as guide
INSERT INTO measurements (binder, quantity_kind, reported) VALUES
  ('Ab7.16 (antibody, human IgG1, kappa, V domains shown, human IgG1/kappa) VH: EVQLVESGGGLVQPGGSLRLSCAASGFTFTSYSMSWVRQAPGKGLEWVAYISYDGGSAYYPDTVKGRFTISRDNSKNTLYLQMNSLRAEDTAVYYCARHGDYDDDDAMDYWGQGTLVTVSS VL: DIQMTQSPSSLSASVGDRVTITCRASENIYSYLAWYQQKQGKAPKLLVYNAETLTEGVPSRFSGSGSGTDFTLTISSLQPEDFANYYCQHHYGTPLTFGQGTKLDIKR', 'kon', '1.3e+06'),
  ('Ab7.18 (antibody, human IgG1, kappa, V domains shown, human IgG1/kappa) VH: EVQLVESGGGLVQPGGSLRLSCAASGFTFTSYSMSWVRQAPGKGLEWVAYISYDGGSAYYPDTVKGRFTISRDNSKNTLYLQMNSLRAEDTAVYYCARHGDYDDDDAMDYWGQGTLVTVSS VL: DIQMTQSPSSLSASVGDRVTITCRASENIYSYLAWYQQKPGKAPKLLVYNAETLTEGVPSRFSGSGSGTDFTLTISSLQPEDFATYYCQHHYGTPLTFGQGTKLEIKR', 'kon', '1.3e+06');

Could you share which kon value was measured for Ab7.20 (antibody, human IgG1, kappa, V domains shown, human IgG1/kappa) VH: EVQLVESGGGLVQPGGSLRLSCAASGFTFTSYSMSWVRQAPGKGLEWVSYISYDGGSAYYPDTVKGRFTISRDNSKNTLYLQMNSLRAEDTAVYYCARHGDYDDDDAMDYWGQGTLVTVSS VL: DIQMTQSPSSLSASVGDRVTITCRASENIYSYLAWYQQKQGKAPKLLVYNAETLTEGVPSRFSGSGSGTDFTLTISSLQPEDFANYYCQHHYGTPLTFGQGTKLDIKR ?
1.3e+06
